Taken from patent US20220251148A1.

For each record, write down the corresponding log10 of IC50.
EXPERIMENTAL_SYSTEM: purified MHC (MHC II molecules purified by affinity chromatography)
ASSAY_NAME: competition with a radiolabelled known MHC binding peptide for purified MHC
On a log10 scale: recorded IC50, unit µM.

Reported log10 of IC50, binder LQLQPFDQPRLPWPQ [P1f (SEQ ID NO: 37), modified alpha gliadin 15-mer peptide] : ____ 0.74

Could you share which log10 of IC50 value was measured for KLPYPQGRLPGPQPQ [P2g (SEQ ID NO: 43), modified alpha gliadin 15-mer peptide] ? 0.57

Report log10 of IC50 for PYPHPWLRGPQPQPF [P3f (SEQ ID NO: 48), modified alpha gliadin 15-mer peptide] please. -0.06

// returns reported log10 of IC50 for input PYSQPESPYMQPQPF [P3d (SEQ ID NO: 47), modified alpha gliadin 15-mer peptide] 0.30

Entry LQLQPFWQPKLPGPQ [P1g (SEQ ID NO: 38), modified alpha gliadin 15-mer peptide] has what log10 of IC50? 1.05

I have this binder here, PYPHPRLPYTQPQPF [P3c (SEQ ID NO: 46), modified alpha gliadin 15-mer peptide] , and I need its recorded log10 of IC50. 0.48
